# Tested on: HOP-92 NSCLC
# method-description: NCI-60 one-dose screen, 48 h
# condition-details: 10 µM
This is part of a sample that, as a whole, favours compounds with a hit. Of some 83,000 tested, about 20% had one in any assay. The source made the active and inactive calls. Rule for the calls: active = growth percent below 10; inactive = the rest.
Respond with a class label; see active, inactive

Completed entries (count: 4):
compound="N#Cc1ccc(NC2c3ccccc3CC2O)cc1 (stereo not given)" assigned_class=inactive
compound=CCOC(=O)c1ccc2n1CCCc1cnc(NC(C)=O)nc1-2 assigned_class=inactive
compound=Nc1ccc(S(=O)(=O)Nc2cc(F)cc(F)c2)cc1 assigned_class=inactive
compound=CC1=C[C@@H]2c3c(c(O)c(O)c4oc5cc(O)cc(O)c5c(=O)c34)[C@@H](c3cc(O)c(O)c4oc5cc(O)cc(O)c5c(=O)c34)[C@@H]2C(C)(C)C1 assigned_class=active

Record lookup: outcome of this test for COc1cccc(Cn2cc3c(c2)-c2oncc2CC3)c1 ? inactive

====

# System: MCF7 breast
# method-description: NCI-60 one-dose screen, 48 h
# condition-details: 10 µM unless noted
About 83,000 compounds went through this panel and 20% of them were active in at least one assay; those are over-represented in the sample as a whole. Calls of active or inactive are those of the source. The calls were made as follows: active = growth percent below 10; inactive = the rest.
Respond with a class label; see true (1) for active, false (0) for inactive

Completed entries (count: 8):
molecule=COc1cccc(Cn2cc3c(c2)-c2oncc2CC3)c1 assigned_class="false (0)"
molecule=O=C(NC(=S)NNC(=S)NNc1ccccc1)c1ccccc1 assigned_class="true (1)"
molecule=CCCCN(CCC)CCCCCCCCCCN1CCCc2ccccc21 assigned_class="false (0)"
molecule="COc1cc(NC(C)CCCN)c2nc(C)ccc2c1OC (stereo unspecified)" assigned_class="false (0)"
molecule="C/C=C(/C)C(=O)OC1C=C(CO)C(=O)C(OC(=O)C(C)(O)C(C)Cl)C1C(C)C (stereo unspecified)" assigned_class="true (1)"
molecule="CCCCCCCCCCC1OC(C)CC(C)O1 (stereo unspecified)" assigned_class="false (0)"
molecule=N#CCc1ncc(-c2ccc(C(F)(F)F)cc2)c(NC2CCCCCC2)n1 assigned_class="false (0)"
molecule="CC(O)CN(CCO)CCN(CCO)CC(C)O (stereo unspecified)" assigned_class="false (0)"

Record lookup: outcome of this test for Cc1nc(NC(=S)Nc2ccc(F)cc2)sc1C(=O)NNC(=S)Nc1ccc(F)cc1 ? false (0)

Record lookup: outcome of this test for O=C(Nc1ccc(-n2cc(-c3ccncc3)c(-c3ccc(Cl)c(O)c3)n2)cc1)Nc1cc(C(F)(F)F)cc(C(F)(F)F)c1 ? false (0)

Record lookup: outcome of this test for CSCc1ncc(-c2ccc(C(F)(F)F)cc2)c(NC2CCCCCC2)n1 ? false (0)

====

# Test system: HCT-116 colon
# method-description: NCI-60 one-dose screen, 48 h (100 = growth as untreated, 0 = no growth, -100 = all killed)
# condition-details: 10 µM unless noted
This is part of a sample that, as a whole, favours compounds with a hit. Of some 83,000 tested, about 20% had one in any assay. Activity calls are given as the source filed them. How the source made its calls: active means growth percent below 10; inactive means the rest.
readout: growth

structure_string=NC(=O)c1c(Nc2ccccc2)nn2cc(-c3nc4ccccc4s3)c(N)nc12 readout=growth value="99.1% (inactive)"

Item: C#CCCCCCCC[C@@H]1OC(=O)[C@H]([C@@H](C)CC)NC(=O)[C@@H]([C@@H](C)CC)NC(=O)CC(=O)[C@@H]1C Test system: HCT-116 colon Read-out: growth Value: ? 94.8% (inactive)

Item: Nc1ccc(N=Nc2ccccc2)c2cc(S(=O)(=O)O)ccc12 Test system: HCT-116 colon Read-out: growth Value: ? 104% (inactive)

Item: Oc1ccc(CN(Cc2ccc(C(F)(F)F)cc2)Cc2ccc(O)c3ncccc23)c2cccnc12 Test system: HCT-116 colon Read-out: growth Value: ? 18% (inactive)

Item: COC(=O)/C=C/c1cc(O)c2oc(-c3ccc(O)c(O)c3)c(C(=O)OC)c2c1 Test system: HCT-116 colon Read-out: growth Value: ? 24.5% (inactive)
